Assay: CNS penetration: drug concentration in blood and brain after i.v. dosing
Assay type: in vivo
Conditions: whole blood, iv; female NMRI mouse, single i.v. dose 1.0 mg/kg, t = 5 min, average of three animals; read-out: Conc (ng/ml in blood)
observed.property: concentration at 5 min (ng/mL)
# output: bare number, implied unit ng/mL

State its concentration at 5 min for this molecule: CCN(CC)Cc1cccc(-c2ccc([S+](=O)([O-])N(C)c3c(C)nn(C)c3C)cc2)c1
116

* * *

Biological target: T. brucei N-myristoyl transferase (Trypanosoma brucei brucei (strain 927/4 GUTat10.1))
Sequence (Q388H8 1-446): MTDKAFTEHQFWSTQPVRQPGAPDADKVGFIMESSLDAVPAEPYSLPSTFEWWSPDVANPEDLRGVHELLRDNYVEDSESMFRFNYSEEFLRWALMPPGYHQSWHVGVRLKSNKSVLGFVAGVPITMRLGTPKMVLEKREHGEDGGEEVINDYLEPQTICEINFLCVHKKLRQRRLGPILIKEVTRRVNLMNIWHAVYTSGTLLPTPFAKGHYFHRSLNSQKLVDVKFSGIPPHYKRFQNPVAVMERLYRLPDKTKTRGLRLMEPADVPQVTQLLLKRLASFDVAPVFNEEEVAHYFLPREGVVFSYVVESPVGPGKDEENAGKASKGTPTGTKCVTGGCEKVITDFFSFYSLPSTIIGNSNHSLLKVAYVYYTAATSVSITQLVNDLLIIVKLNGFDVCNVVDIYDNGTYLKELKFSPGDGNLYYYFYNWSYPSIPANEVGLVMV
Assay: biochemical
Assay type: biochemical
Conditions: read-out: IC50 (μM) NMT Enzyme
observed.property: IC50 (µM)
# output: bare number, implied unit µM

# return IC50 for Cc1nn(C)c(C)c1NS(=O)(=O)c1ccc(-c2ccnc(N3CCNC(c4ccccc4)C3)c2)cc1 (stereo not shown) , test system: T. brucei N-myristoyl transferase (Trypanosoma brucei brucei (strain 927/4 GUTat10.1))
0.76

* * *

Target: T. brucei N-myristoyl transferase (Trypanosoma brucei brucei (strain 927/4 GUTat10.1))
Assay: biochemical
Format: biochemical
Settings: value with no enzyme tag in the cell; taken as T. brucei NMT; read-out: IC50 (μM) NMT Enzyme
observed.property: IC50 (µM)
# output: bare number, implied unit µM

Look over these answered cases.
{"columns": ["compound", "target.of.assay", "IC50 (µM)"],
 "data": [
  ["Cc1nn(C)c(C)c1N[S+](=O)([O-])c1ccc(-c2cccc(CCN(C)C)c2)cc1 [DDD90106]", "T. brucei N-myristoyl transferase (Trypanosoma brucei brucei (strain 927/4 GUTat10.1))", 0.024],
  ["Cc1cc([S+](=O)([O-])Nc2c(CC(C)C)nn(C)c2C)ccc1-c1cccc(CN(C)C)c1 [DDD99819]", "T. brucei N-myristoyl transferase (Trypanosoma brucei brucei (strain 927/4 GUTat10.1))", 0.008]
]}

Pending compound:
# return IC50 for Cc1nn(C)c(C)c1N(C)[S+](=O)([O-])c1ccc(CCCCCn2ccnc2)cc1 [DDD99735] , test system: T. brucei N-myristoyl transferase (Trypanosoma brucei brucei (strain 927/4 GUTat10.1))
0.83

* * *

Target: T. brucei N-myristoyl transferase (Trypanosoma brucei brucei (strain 927/4 GUTat10.1))
Test: biochemical
Assay type: biochemical
Details: value with no enzyme tag in the cell; taken as T. brucei NMT; read-out: IC50 (μM) NMT Enzyme
Param label: returns condition met when IC50 < 1 µM, returns condition not met otherwise, including exact equality.

Worked set:
{"columns": ["compound", "label.class"],
 "data": [
  ["Cc1nn(C)c(C)c1N[S+](=O)([O-])c1c(F)cc(-c2ccnc(N3CCNCC3)c2)cc1F", "condition met"],
  ["Cc1nn(C)c(C)c1N(C)[S+](=O)([O-])c1ccc(CCCn2ccnc2)cc1", "condition not met"],
  ["Cn1cc(N[S+](=O)([O-])c2c(Cl)cc(Br)cc2Cl)cn1", "condition not met"],
  ["Cc1cc(CN(C)C)cc(-c2ccc([S+](=O)([O-])Nc3c(CC(C)C)nn(C)c3C)cc2)c1", "condition met"],
  ["Cc1nn(C)cc1N[S+](=O)([O-])c1c(Cl)cc(Br)cc1Cl", "condition not met"]
]}

Would you kindly verify if IC50 of CCCN(CCC)Cc1cccc(-c2cc(Cl)c([S+](=O)([O-])N(C)c3c(C)nn(C)c3C)c(Cl)c2)c1 is strictly less than 1 µM?
condition met

Would you kindly verify if IC50 of Cc1nn(C)c(C)c1N[S+](=O)([O-])c1cc(F)c(CCCN2CCN(C)CC2)cc1F is strictly less than 1 µM?
condition met

Would you kindly verify if IC50 of Cc1nn(C)c(C)c1N[S+](=O)([O-])c1ccc(-c2cccc(CC3CCN(C)CC3)c2)cc1 is strictly less than 1 µM?
condition met

* * *

Target: T. brucei N-myristoyl transferase (Trypanosoma brucei brucei (strain 927/4 GUTat10.1))
Test: biochemical
Assay type: biochemical
Settings: value printed without enzyme tag in the NMT Enzyme column (taken as T. brucei NMT); read-out: IC50 (μM) NMT Enzyme
Form field: IC50 (one value per entry).
# output: bare number, implied unit µM

{"columns": ["smiles.input", "observed.property", "readout.value"],
 "data": [
  ["Cc1nn(C)c(C)c1N[S+](=O)([O-])c1ccc2c(c1)OCCN2C", "IC50", 16.1],
  ["Cc1nn(C)c(C)c1N[S+](=O)([O-])c1ccc(Cn2cnc3ccccc32)cc1", "IC50", 6.1],
  ["Cc1nn(C)c(C)c1N(C1CCCC1)[S+](=O)([O-])c1c(Cl)cc(Br)cc1Cl", "IC50", 1.9],
  ["Cc1nn(C)c(C)c1N[S+](=O)([O-])c1ccc(CSc2ccc(C(C)(C)C)cc2)cc1", "IC50", 69.5],
  ["Cc1nn(C)c(C)c1N[S+](=O)([O-])c1ccc(CNc2ccccc2)cc1", "IC50", 3.8],
  ["Cc1nn(C)c(C)c1N[S+](=O)([O-])c1ccc(CNC(=O)c2ccccc2)s1", "IC50", 0.63],
  ["Cc1nn(C)c(C)c1N[S+](=O)([O-])c1ccc(N(C)CCCN(C)C)nc1", "IC50", 0.61],
  ["Cc1nn(C)c(C)c1N[S+](=O)([O-])c1c(Cl)cc(-c2cc3ccccc3o2)cc1Cl", "IC50", 20.7]
]}

Pending molecule:
State its IC50 for this molecule: Cc1nn(C)c(C)c1N[S+](=O)([O-])c1ccc(CNc2ccncn2)cc1
4.2

* * *

Biological target: T. brucei N-myristoyl transferase (Trypanosoma brucei brucei (strain 927/4 GUTat10.1))
Assay: biochemical
Format: biochemical
Settings: T. brucei NMT; value without parentheses; read-out: IC50 (μM) NMT Enzyme (T. brucei NMT)
Param label: returns rule met when IC50 < 0.02 µM, returns rule not met otherwise, including exact equality.

Worked set:
{"columns": ["molecule", "label.class"],
 "data": [
  ["Cc1c(N[S+](=O)([O-])c2ccc(-c3cccc(CN4CCCC4C)c3)cc2)c(CC(C)C)nn1C (centres unmarked)", "rule met"],
  ["Cc1c(N[S+](=O)([O-])c2ccc(-c3cccc(CNCCc4cccnc4)c3)cc2)c(CC(C)C)nn1C", "rule met"],
  ["Cc1nn(C)c(C)c1N(CC(F)F)[S+](=O)([O-])c1c(Cl)cc(Br)cc1Cl", "rule not met"],
  ["CCCc1nn(C)c(C)c1N[S+](=O)([O-])c1ccc(-c2cccc(CN(C)C)c2)cc1", "rule met"]
]}

Would you kindly verify if IC50 of Cc1c(N[S+](=O)([O-])c2ccc(-c3cccc(CNC4CCCC4)c3)cc2)c(CC(C)C)nn1C is strictly less than 0.02 µM?
rule not met

Would you kindly verify if IC50 of Cc1c(N[S+](=O)([O-])c2ccc(-c3ccc4c(c3)CN(C)CC4)cc2)c(CC(C)C)nn1C is strictly less than 0.02 µM?
rule met

Would you kindly verify if IC50 of Cc1c(N[S+](=O)([O-])c2ccc(-c3cccc(CNCc4cccnc4)c3)cc2)c(CC(C)C)nn1C is strictly less than 0.02 µM?
rule not met

Would you kindly verify if IC50 of Cc1nn(C)c(C)c1N[S+](=O)([O-])c1ccc(-c2cccc(-c3ncc[nH]3)c2)cc1 is strictly less than 0.02 µM?
rule not met

Would you kindly verify if IC50 of Cc1c(N[S+](=O)([O-])c2ccc(-c3cccc(CNCCc4ccccn4)c3)cc2)c(CC(C)C)nn1C is strictly less than 0.02 µM?
rule not met

Would you kindly verify if IC50 of Cc1c(N[S+](=O)([O-])c2ccc(-c3cccc(CNCCc4ccccc4)c3)cc2)c(CC(C)C)nn1C is strictly less than 0.02 µM?
rule not met

Would you kindly verify if IC50 of CCCNCc1cccc(-c2ccc([S+](=O)([O-])Nc3c(CC(C)C)nn(C)c3C)cc2)c1 is strictly less than 0.02 µM?
rule met

Would you kindly verify if IC50 of CCCCc1nn(C)c(C)c1N[S+](=O)([O-])c1ccc(-c2cccc(CN(C)C)c2)cc1 is strictly less than 0.02 µM?
rule met

Would you kindly verify if IC50 of CCc1nn(C)c(CC)c1NS(=O)(=O)c1c(Cl)cc(Br)cc1Cl is strictly less than 0.02 µM?
rule not met

Would you kindly verify if IC50 of Cc1c(N[S+](=O)([O-])c2ccc(Br)cc2)c(CCc2ccccc2)nn1C is strictly less than 0.02 µM?
rule not met

Would you kindly verify if IC50 of Cc1nn(C)c(C)c1N[S+](=O)([O-])c1ccc(-c2cccc(-c3nccn3C)c2)cc1 [DDD100878] is strictly less than 0.02 µM?
rule not met

Would you kindly verify if IC50 of Cc1c(N[S+](=O)([O-])c2ccc(-c3cccc(CN(C)C)c3)cc2)c(CCc2ccccc2)nn1C is strictly less than 0.02 µM?
rule not met

Would you kindly verify if IC50 of Cc1nn(C)c(C)c1N[S+](=O)([O-])c1ccc(-c2cccc(-c3cn(C)cn3)c2)cc1 is strictly less than 0.02 µM?
rule not met

Would you kindly verify if IC50 of Cc1c(N[S+](=O)([O-])c2ccc(-c3cccc(CC4CCNCC4)c3)cc2)c(CC(C)C)nn1C is strictly less than 0.02 µM?
rule met

Would you kindly verify if IC50 of Cc1nn(C)c(C)c1N[S+](=O)([O-])c1ccc(-c2cccc(-c3c[nH]cn3)c2)cc1 is strictly less than 0.02 µM?
rule not met

Would you kindly verify if IC50 of Cc1c(N[S+](=O)([O-])c2ccc(CCCCC3CCNCC3)cc2)c(CC(C)C)nn1C is strictly less than 0.02 µM?
rule met

Would you kindly verify if IC50 of Cc1nn(C)c(C)c1N(CC(F)(F)F)[S+](=O)([O-])c1c(Cl)cc(CCCN2CCN(C)CC2)cc1Cl is strictly less than 0.02 µM?
rule met
